Measured target: NO-Synthase (iNOS) (Mus musculus, UniProt P29477)
Construct: Während der Stimulation über 4 Stunden wird die Neusynthese des NO-produzierenden Enzyms NO-Synthase (iNOS) induziert; endogenous in cells; host or cells: RAW 264.7 mouse macrophages stimulated with LPS and γ-interferon
Assay name: NO measurement by oxyhaemoglobin on LPS/γ-interferon-stimulated macrophages (inhibition of NO release)
Format: cell-based, Maus
Experimental parameters: Mäusemakrophagen RAW 264.7, stimulated 4 h with 140 ng LPS/ml + 5 U γIFN/ml; 120 min incubation with test substance; Extinktionsdifferenz 576-592 nm vs. stimulation control
Result type: IC50 (µM)

• NC1=NCCCCS1 [Beispiel 1] = 1.3
